Values compiled from patent US20220306762A1.

Biological target: T1, His-tagged human CD38 (ACRO Biosystems cat #CD8-H5224) (human, UniProt P28907 43-300)
T1 construct: bought recombinant protein with His tag
Assay: SPR, captured scFv-Fc, His-CD38 analyte;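 also: SPR on a Carterra LSA, scFv-Fc captured by anti-human Fc on HC30M chip, His-tagged CD38 (human, mouse, cynomolgus) flowed as analyte in eight 1:2 steps from 400 nM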
readoutLabel: Kd (nM)
Numeric only. Scale: nM

Problem: Supply recorded Kd for 40617p1.2.H1 (scFv, V domains shown, tested as scFv-Fc supernatant) VH: EVQLLESGGGLVQPGGSLRLSCAASGFTFTNYWMTWVRQAPGKGLEWVSAISSYGGNYMYYADSVKGRFTISRDNSENTLYLQMNSLRAEDTAVYYCAKDWDDGMDVWGQGTTVTVSS VL: EIVMTQSPAVLSVSPGERATLSCRASQTVGSKLAWYQQKPGQAPRLLIYGVSTRAAGIPDRFSGSGSGTDFTLTISSLQSEDFAVYYCQQYYDLPPYSFGGGTKVEIK here.
Result: 12.5

Problem: # return recorded Kd for entry 40769p1.2.E3 (scFv, V domains shown, tested as scFv-Fc supernatant) VH: EVQLLESGGDLVQPGGSLRLSCGASGFTFSDHYMSWVRQAPGKGLEWVADISARGSNTWYADSVKGRFTISRDNSENTLYLQMNSLRAEDTAVYYCAKNWNYNYGMDVWGQGTTVTVSS VL: QSVLTQAPSASGTPGQRVTISCSGSSIQNNYVSWYQQLPGTAPKLLIYRNFERPSGVPDRFSASKSGTSASLAISGLQSEDEADYYCASWDDSLNWVFGGGTKLTVL
Result: 2.24
